target: Calcineurin (Homo sapiens, UniProt P63098+Q08209); assay: biochemical
pIC50: −log10 of the molar value. Square brackets hold non-standard residues; d marks the D form. Peptide text beside a SMILES is read from it. * marks the point of attachment. NMe(2-epi-Bmt) = C/C=C/C[C@@H](C)[C@@H](O)[C@@H](NC)C(=O)O; NMeL = CN[C@@H](CC(C)C)C(=O)O; dNMeL = CN[C@H](CC(C)C)C(=O)O; dNMeV = CN[C@@H](C(=O)O)C(C)C; dNMeC = CN[C@H](CS)C(=O)O; dAbu = CC[C@@H](N)C(=O)O; Et2NCH2CH2 = CCN(CC)CC*

Molecule | pIC50
C/C=C/C[C@@H](C)[C@@H](O)[C@@H]1C(=O)N[C@H](CC)C(=O)N(C)[C@H](CSCCN(CC)CC)C(=O)N(C)[C@@H](CC(C)C)C(=O)N[C@H](C(C)C)C(=O)N(C)[C@H](CC(C)C)C(=O)N[C@H](C)C(=O)N[C@@H](C)C(=O)N(C)[C@H](CC(C)C)C(=O)N(C)[C@H](CC(C)C)C(=O)N(C)[C@H](C(C)C)C(=O)N1C [Example 2] (cyclo(A[dNMeL][dNMeL][dNMeV][NMe(2-epi-Bmt)][dAbu][dNMeC](Et2NCH2CH2)[NMeL][dV][dNMeL][dA])) | 5.44

----------
# Ki per entry
target: human recombinant Cyp A (Homo sapiens, UniProt P62937); assay: biochemical
Sequence (P62937 whole entry): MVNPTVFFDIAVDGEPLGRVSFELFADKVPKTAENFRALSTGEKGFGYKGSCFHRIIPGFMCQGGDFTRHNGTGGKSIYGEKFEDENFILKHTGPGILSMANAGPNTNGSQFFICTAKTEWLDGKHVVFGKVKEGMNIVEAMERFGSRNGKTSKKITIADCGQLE
Square brackets hold non-standard residues; d marks the D form. Peptide text beside a SMILES is read from it. * marks the point of attachment. NMe(2-epi-Bmt) = C/C=C/C[C@@H](C)[C@@H](O)[C@@H](NC)C(=O)O; NMeL = CN[C@@H](CC(C)C)C(=O)O; dNMeL = CN[C@H](CC(C)C)C(=O)O; dNMeV = CN[C@@H](C(=O)O)C(C)C; dNMeC = CN[C@H](CS)C(=O)O; dAbu = CC[C@@H](N)C(=O)O; CH2CH2COOH = O=C(O)CC*; X5 = CN1CCC(*)CC1
Value type: Ki (nM)

Compound | Result units | Test result
C/C=C/C[C@@H](C)[C@@H](O)[C@@H]1C(=O)N[C@H](CC)C(=O)N(C)[C@H](CSC(C)(C)[C@@H](N)C(=O)OC)C(=O)N(C)[C@@H](CC(C)C)C(=O)N[C@H](C(C)C)C(=O)N(C)[C@H](CC(C)C)C(=O)N[C@H](C)C(=O)N[C@@H](C)C(=O)N(C)[C@H](CC(C)C)C(=O)N(C)[C@H](CC(C)C)C(=O)N(C)[C@H](C(C)C)C(=O)N1C | nM | 9.3
C/C=C/C[C@@H](C)[C@@H](O)[C@@H]1C(=O)N[C@H](CC)C(=O)N(C)[C@H](CSC2CCN(C)CC2)C(=O)N(C)[C@@H](CC(C)C)C(=O)N[C@H](C(C)C)C(=O)N(C)[C@H](CC(C)C)C(=O)N[C@H](C)C(=O)N[C@@H](C)C(=O)N(C)[C@H](CC(C)C)C(=O)N(C)[C@H](CC(C)C)C(=O)N(C)[C@H](C(C)C)C(=O)N1C [Example 9] (cyclo(A[dNMeL][dNMeL][dNMeV][NMe(2-epi-Bmt)][dAbu][dNMeC](X5)[NMeL][dV][dNMeL][dA])) | nM | 4.8
C/C=C/C[C@@H](C)[C@@H](O)[C@@H]1C(=O)N[C@H](CC)C(=O)N(C)[C@H](CSCCC(=O)O)C(=O)N(C)[C@@H](CC(C)C)C(=O)N[C@H](C(C)C)C(=O)N(C)[C@H](CC(C)C)C(=O)N[C@H](C)C(=O)N[C@@H](C)C(=O)N(C)[C@H](CC(C)C)C(=O)N(C)[C@H](CC(C)C)C(=O)N(C)[C@H](C(C)C)C(=O)N1C [Example 17] (cyclo(A[dNMeL][dNMeL][dNMeV][NMe(2-epi-Bmt)][dAbu][dNMeC](CH2CH2COOH)[NMeL][dV][dNMeL][dA])) | nM | 2.8

----------
# IC50 per entry
molecular target: Calcineurin (Homo sapiens, UniProt P63098+Q08209); assay: biochemical
Square brackets hold non-standard residues; d marks the D form. Peptide text beside a SMILES is read from it. * marks the point of attachment. NMe(2-epi-Bmt) = C/C=C/C[C@@H](C)[C@@H](O)[C@@H](NC)C(=O)O; NMeL = CN[C@@H](CC(C)C)C(=O)O; dNMeL = CN[C@H](CC(C)C)C(=O)O; dNMeV = CN[C@@H](C(=O)O)C(C)C; dNMeC = CN[C@H](CS)C(=O)O; dAbu = CC[C@@H](N)C(=O)O; X5 = CN1CCC(*)CC1
Value type: IC50 (µM)

Compound | Test result
C/C=C/C[C@@H](C)[C@@H](O)[C@@H]1C(=O)N[C@H](CC)C(=O)N(C)[C@H](CSC2CCN(C)CC2)C(=O)N(C)[C@@H](CC(C)C)C(=O)N[C@H](C(C)C)C(=O)N(C)[C@H](CC(C)C)C(=O)N[C@H](C)C(=O)N[C@@H](C)C(=O)N(C)[C@H](CC(C)C)C(=O)N(C)[C@H](CC(C)C)C(=O)N(C)[C@H](C(C)C)C(=O)N1C [Example 9] (cyclo(A[dNMeL][dNMeL][dNMeV][NMe(2-epi-Bmt)][dAbu][dNMeC](X5)[NMeL][dV][dNMeL][dA])) | 3.3
C/C=C/C[C@@H](C)[C@@H](O)[C@@H]1C(=O)N[C@H](CC)C(=O)N(C)[C@H](CSC)C(=O)N(C)[C@@H](CC(C)C)C(=O)N[C@H](C(C)C)C(=O)N(C)[C@H](CC(C)C)C(=O)N[C@H](C)C(=O)N[C@@H](C)C(=O)N(C)[C@H](CC(C)C)C(=O)N(C)[C@H](CC(C)C)C(=O)N(C)[C@H](C(C)C)C(=O)N1C [Example 4] (cyclo(A[dNMeL][dNMeL][dNMeV][NMe(2-epi-Bmt)][dAbu][dNMeC](Me)[NMeL][dV][dNMeL][dA])) | 2.2

----------
molecular target: Calcineurin (Homo sapiens, UniProt P63098+Q08209); assay: biochemical
Counter-ions that a name gives are not always drawn. Square brackets hold non-standard residues; d marks the D form. Peptide text beside a SMILES is read from it. * marks the point of attachment. NMe(2-epi-Bmt) = C/C=C/C[C@@H](C)[C@@H](O)[C@@H](NC)C(=O)O; Ethyl(2-guanidino) = N=C(N)NCC*; NMeL = CN[C@@H](CC(C)C)C(=O)O; dNMeL = CN[C@H](CC(C)C)C(=O)O; dNMeV = CN[C@@H](C(=O)O)C(C)C; dNMeC = CN[C@H](CS)C(=O)O; dAbu = CC[C@@H](N)C(=O)O; X3 = c1cc(CC*)ccn1; X6 = COC(=O)CC*; X4 = CC(C)NCC*; X2 = CCCCC*
# IC50 per entry

Molecule | Comparator | IC50 / µM
C/C=C/C[C@@H](C)[C@@H](O)[C@@H]1C(=O)N[C@H](CC)C(=O)N(C)[C@H](CSCCC(=O)OC)C(=O)N(C)[C@@H](CC(C)C)C(=O)N[C@H](C(C)C)C(=O)N(C)[C@H](CC(C)C)C(=O)N[C@H](C)C(=O)N[C@@H](C)C(=O)N(C)[C@H](CC(C)C)C(=O)N(C)[C@H](CC(C)C)C(=O)N(C)[C@H](C(C)C)C(=O)N1C [Example 12] (cyclo(A[dNMeL][dNMeL][dNMeV][NMe(2-epi-Bmt)][dAbu][dNMeC](X6)[NMeL][dV][dNMeL][dA])) | = | 9.1
C/C=C/C[C@@H](C)[C@@H](O)[C@@H]1C(=O)N[C@H](CC)C(=O)N(C)[C@H](CSC(C)(C)[C@@H](N)C(=O)O)C(=O)N(C)[C@@H](CC(C)C)C(=O)N[C@H](C(C)C)C(=O)N(C)[C@H](CC(C)C)C(=O)N[C@H](C)C(=O)N[C@@H](C)C(=O)N(C)[C@H](CC(C)C)C(=O)N(C)[C@H](CC(C)C)C(=O)N(C)[C@H](C(C)C)C(=O)N1C [Example 16] | = | 2.7
C/C=C/C[C@@H](C)[C@@H](O)[C@@H]1C(=O)N[C@H](CC)C(=O)N(C)[C@H](CSC(C)(C)[C@@H](N)C(=O)OC)C(=O)N(C)[C@@H](CC(C)C)C(=O)N[C@H](C(C)C)C(=O)N(C)[C@H](CC(C)C)C(=O)N[C@H](C)C(=O)N[C@@H](C)C(=O)N(C)[C@H](CC(C)C)C(=O)N(C)[C@H](CC(C)C)C(=O)N(C)[C@H](C(C)C)C(=O)N1C [Example 13] | = | 4.1
C/C=C/C[C@@H](C)[C@@H](O)[C@@H]1C(=O)N[C@H](CC)C(=O)N(C)[C@H](CSCCc2ccncc2)C(=O)N(C)[C@@H](CC(C)C)C(=O)N[C@H](C(C)C)C(=O)N(C)[C@H](CC(C)C)C(=O)N[C@H](C)C(=O)N[C@@H](C)C(=O)N(C)[C@H](CC(C)C)C(=O)N(C)[C@H](CC(C)C)C(=O)N(C)[C@H](C(C)C)C(=O)N1C [Example 3] (cyclo(A[dNMeL][dNMeL][dNMeV][NMe(2-epi-Bmt)][dAbu][dNMeC](X3)[NMeL][dV][dNMeL][dA])) | = | 11.8
C/C=C/C[C@@H](C)[C@@H](O)[C@@H]1C(=O)N[C@H](CC)C(=O)N(C)[C@H](CSCCNC(C)C)C(=O)N(C)[C@@H](CC(C)C)C(=O)N[C@H](C(C)C)C(=O)N(C)[C@H](CC(C)C)C(=O)N[C@H](C)C(=O)N[C@@H](C)C(=O)N(C)[C@H](CC(C)C)C(=O)N(C)[C@H](CC(C)C)C(=O)N(C)[C@H](C(C)C)C(=O)N1C [Example 18] (cyclo(A[dNMeL][dNMeL][dNMeV][NMe(2-epi-Bmt)][dAbu][dNMeC](X4)[NMeL][dV][dNMeL][dA])) | = | 4.6
C/C=C/C[C@@H](C)[C@@H](O)[C@@H]1C(=O)N[C@H](CC)C(=O)N(C)[C@H](CSCCCCC)C(=O)N(C)[C@@H](CC(C)C)C(=O)N[C@H](C(C)C)C(=O)N(C)[C@H](CC(C)C)C(=O)N[C@H](C)C(=O)N[C@@H](C)C(=O)N(C)[C@H](CC(C)C)C(=O)N(C)[C@H](CC(C)C)C(=O)N(C)[C@H](C(C)C)C(=O)N1C [Example 5] (cyclo(A[dNMeL][dNMeL][dNMeV][NMe(2-epi-Bmt)][dAbu][dNMeC](X2)[NMeL][dV][dNMeL][dA])) | > | 10
C/C=C/C[C@@H](C)[C@@H](O)[C@@H]1C(=O)N[C@H](CC)C(=O)N(C)[C@H](CSCCNC(=N)N)C(=O)N(C)[C@@H](CC(C)C)C(=O)N[C@H](C(C)C)C(=O)N(C)[C@H](CC(C)C)C(=O)N[C@H](C)C(=O)N[C@@H](C)C(=O)N(C)[C@H](CC(C)C)C(=O)N(C)[C@H](CC(C)C)C(=O)N(C)[C@H](C(C)C)C(=O)N1C [Example 19, hydrochloride] (cyclo(A[dNMeL][dNMeL][dNMeV][NMe(2-epi-Bmt)][dAbu][dNMeC](Ethyl(2-guanidino))[NMeL][dV][dNMeL][dA])) | = | 3.2
